measurement target: complement C5a receptor 1 (C5aR1) (Homo sapiens, UniProt P21730)
Construct: β-galactosidase fragment (PathHunter enzyme complementation); host or cells: CHO-K1 (PathHunter CHO-K1 C5aR1 β-arrestin cell line)
protocol details: β-arrestin recruitment via C5aR1 activation in live CHO-K1 cells (PathHunter), antagonist mode
Type: cell-based
particulars: antagonist mode; recombinant hC5a (EC90) as competing natural agonist; live CHO-K1 cells; read-out: [Antagonist] B-arrestin2 recruitment: Average IC50
measured parameter: IC50

Worked examples, 3 compounds total:
compound: Cc1ccc2cc([C@H]3CC[C@H](c4cnccc4C(F)(F)F)CC3)c(=O)n(Cc3ncccc3OC(F)(F)F)c2n1
IC50: < 500 nM
--
compound: Cc1cnc2cc(C3CCN(c4c(C)cccc4F)CC3)c(=O)n(Cc3ccccc3OC(F)F)c2n1
IC50: 500 to 5000 nM
--
compound: Cc1c(C2CCN(c3ccccc3C(F)(F)F)CC2)c(=O)n(Cc2ncccc2F)c2nccnc12
IC50: < 500 nM

Proceeding to the next compound to report its IC50.
For reference, reported IC50 for Cc1cnc2cc([C@@H]3CC[C@@H](c4c(C)cccc4F)C3)c(=O)n(Cc3nccnc3C(F)(F)F)c2n1 [197D] stands at < 500 nM

----------
measurement target: complement C5a receptor 1 (C5aR1) (Homo sapiens)
Construct: β-galactosidase fragment (PathHunter enzyme complementation); host or cells: CHO-K1 (PathHunter CHO-K1 C5aR1 β-arrestin cell line)
Sequence (P21730 1-350): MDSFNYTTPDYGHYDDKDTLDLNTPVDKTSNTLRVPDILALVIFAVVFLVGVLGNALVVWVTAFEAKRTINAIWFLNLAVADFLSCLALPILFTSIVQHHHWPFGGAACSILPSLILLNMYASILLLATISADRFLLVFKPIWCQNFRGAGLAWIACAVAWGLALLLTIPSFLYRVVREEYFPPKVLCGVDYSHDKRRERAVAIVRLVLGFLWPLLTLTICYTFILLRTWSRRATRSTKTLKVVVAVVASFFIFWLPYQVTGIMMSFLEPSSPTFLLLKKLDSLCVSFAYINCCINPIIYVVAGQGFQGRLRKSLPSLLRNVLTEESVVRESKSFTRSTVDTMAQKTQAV
protocol details: β-arrestin recruitment via C5aR1 activation in live CHO-K1 cells (PathHunter), antagonist mode
Format: cell-based
particulars: antagonist mode; recombinant hC5a (EC90) as competing natural agonist; live CHO-K1 cells; read-out: [Antagonist] B-arrestin2 recruitment: Average IC50
pIC50: −log10 of the molar value.
measured parameter: pIC50

Previously resolved entries follow.
compound: Cc1cccc(F)c1N1CCC(c2nc3nccnc3n(Cc3ccccc3OC(F)F)c2=O)CC1
measurement target: complement C5a receptor 1 (C5aR1) (Homo sapiens)
experimental value: 5.30 to 6.30
--
compound: Cc1cnc2cc(N3CCN(c4c(C)cccc4F)CC3)c(=O)n(Cc3nccnc3C)c2n1
measurement target: complement C5a receptor 1 (C5aR1) (Homo sapiens)
experimental value: 5.30 to 6.30
--
compound: Cc1ccc2cc([C@H]3C[C@@H](c4c(C)cccc4F)C3)c(=O)n(Cc3ncccc3C(F)(F)F)c2n1 [243B]
measurement target: complement C5a receptor 1 (C5aR1) (Homo sapiens)
experimental value: > 6.30
--
compound: Cc1cnc2cc([C@H]3CC[C@H](c4c(C)cccc4F)C3)c(=O)n(Cc3nccnc3C)c2n1 [172C]
measurement target: complement C5a receptor 1 (C5aR1) (Homo sapiens)
experimental value: > 6.30
--
compound: Cc1cnc2cc([C@H]3CC[C@H](c4c(C)cccc4F)CC3)c(=O)n(Cc3ncccc3OC(F)F)c2n1
measurement target: complement C5a receptor 1 (C5aR1) (Homo sapiens)
experimental value: > 6.30

compound `Cc1cnc2cc(C3CCN(c4ncccc4C(F)F)CC3)c(=O)n(Cc3ncccc3C(F)(F)F)c2n1` , pIC50 observed: > 6.30

pIC50 measured on `Cc1cccc(F)c1[C@H]1CC[C@H](c2cc3ncc(C(F)F)nc3n(Cc3ncccc3C(F)(F)F)c2=O)CC1` = > 6.30

The value of pIC50 measured for the compound `CCCc1cnc2cc([C@H]3CC[C@H](c4c(C)cccc4F)CC3)c(=O)n(Cc3ncccc3C(F)(F)F)c2n1` turned out to be > 6.30

----------
Listing of recorded IC50 by entry.
measurement target: complement C5a receptor 1 (C5aR1) (Homo sapiens)
Construct: β-galactosidase fragment (PathHunter enzyme complementation); host or cells: CHO-K1 (PathHunter CHO-K1 C5aR1 β-arrestin cell line)
Sequence (P21730 1-350): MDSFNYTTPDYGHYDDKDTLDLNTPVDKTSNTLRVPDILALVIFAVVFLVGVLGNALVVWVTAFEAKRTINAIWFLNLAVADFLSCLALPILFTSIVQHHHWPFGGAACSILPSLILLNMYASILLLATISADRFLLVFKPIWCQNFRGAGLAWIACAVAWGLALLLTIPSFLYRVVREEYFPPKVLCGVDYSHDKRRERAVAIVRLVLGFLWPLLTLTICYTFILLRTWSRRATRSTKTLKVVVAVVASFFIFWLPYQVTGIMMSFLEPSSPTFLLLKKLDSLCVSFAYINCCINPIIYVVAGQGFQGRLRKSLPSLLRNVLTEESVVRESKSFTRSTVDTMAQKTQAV
protocol details: β-arrestin recruitment via C5aR1 activation in live CHO-K1 cells (PathHunter), antagonist mode
Format: cell-based
particulars: antagonist mode; recombinant hC5a (EC90) as competing natural agonist; live CHO-K1 cells; read-out: [Antagonist] B-arrestin2 recruitment: Average IC50
Method: Exemplary compounds were evaluated for classical GPCR β-arrestin recruitment via complement C5a receptor 1 (C5aR1) activation in live CHO-K1 cells. This cell line expresses two fragments of the […] protein coupled to β-arrestin and C5aR1. Complementation of the two fragments allows for the assessment of both C5aR1 agonism and antagonism. […]

compound: COc1cnc2cc(C3CCN(c4c(C)cccc4F)CC3)c(=O)n(Cc3ccccc3C(F)(F)F)c2n1 [compound 58]
measurement target: complement C5a receptor 1 (C5aR1) (Homo sapiens)
measured parameter: IC50
experimental value: 0.5 to 5 µM

Data point: Cc1cccc(F)c1N1CCN(c2cc3nccnc3n(Cc3ncccc3OC(F)(F)F)c2=O)CC1 [compound 123] ; IC50 = < 0.5 µM

Given item COc1cnc2cc(C3CCN(c4c(C)cccc4F)CC3)c(=O)n(Cc3ncccc3C(F)(F)F)c2n1 [compound 54] , the value recorded as its IC50 is > 100 µM

The compound listed as Cc1cnc2cc([C@H]3CC[C@H](c4c(F)cccc4F)CC3)c(=O)n(Cc3ncccc3CC(F)(F)F)c2n1 [compound 236] has a reported IC50 of < 0.5 µM

Value of IC50 reported for the compound Cc1nccnc1N1CCC(c2cc3nccnc3n(Cc3ccccc3C(F)(F)F)c2=O)CC1 [compound 8] is 5 to 100 µM

----------
measurement target: complement C5a receptor 1 (C5aR1) (Homo sapiens, UniProt P21730)
Construct: β-galactosidase fragment (PathHunter enzyme complementation); host or cells: CHO-K1 (PathHunter CHO-K1 C5aR1 β-arrestin cell line)
protocol details: β-arrestin recruitment via C5aR1 activation in live CHO-K1 cells (PathHunter), agonist mode
Type: cell-based
measured parameter: [Agonist] B-arrestin2 recruitment: Average EC50 (nM)

compound: COc1nccnc1N1CCC(c2cc3nccnc3n(Cc3ccccc3C(F)(F)F)c2=O)CC1
measurement target: complement C5a receptor 1 (C5aR1) (Homo sapiens, UniProt P21730)
experimental value: Non-Active
--
compound: Cc1ccc2cc([C@H]3CC[C@H](c4c(C)cccc4F)CC3)c(=O)n(Cc3ncccc3OC(F)F)c2n1
measurement target: complement C5a receptor 1 (C5aR1) (Homo sapiens, UniProt P21730)
experimental value: Non-Active
--
compound: COc1nccc(C)c1[C@H]1CC[C@H](c2cc3ccc(C)nc3n(Cc3ncccc3C(C)(F)F)c2=O)CC1
measurement target: complement C5a receptor 1 (C5aR1) (Homo sapiens, UniProt P21730)
experimental value: Non-Active
--
compound: Cc1cnc2cc(C3CCN(c4c(C)cccc4F)CC3)c(=O)n(Cc3ncccc3C(F)(F)F)c2n1
measurement target: complement C5a receptor 1 (C5aR1) (Homo sapiens, UniProt P21730)
experimental value: Non-Active
--
compound: Cc1cccc(F)c1N1CCC(c2cc3nccnc3n(Cc3nccnc3C)c2=O)CC1
measurement target: complement C5a receptor 1 (C5aR1) (Homo sapiens, UniProt P21730)
experimental value: Non-Active
--
compound: Cc1cccc(F)c1N1CC(c2cc3nccnc3n(Cc3ncccc3C(F)(F)F)c2=O)C1
measurement target: complement C5a receptor 1 (C5aR1) (Homo sapiens, UniProt P21730)
experimental value: Non-Active
--
compound: Cc1c(C2CCN(c3cccnc3C(F)(F)F)CC2)c(=O)n(Cc2ccccc2F)c2nccnc12
measurement target: complement C5a receptor 1 (C5aR1) (Homo sapiens, UniProt P21730)
experimental value: Non-Active
--
compound: Cc1cnc2cc(N3CCN(c4c(C)cccc4F)CC3)c(=O)n(Cc3ncccc3OC(F)(F)F)c2n1
measurement target: complement C5a receptor 1 (C5aR1) (Homo sapiens, UniProt P21730)
experimental value: Non-Active

Lab note: `Cc1cccc(F)c1N1CCN(c2cc3nccnc3n(Cc3ncccc3OC(F)(F)F)c2=O)CC1` gave [Agonist] B-arrestin2 recruitment: Average EC50 (nM) of Non-Active

Quick note, [Agonist] B-arrestin2 recruitment: Average EC50 (nM) for `COc1cnc2cc(C3CCN(c4c(C)cccc4F)CC3)c(=O)n(Cc3ccccc3C(F)(F)F)c2n1` landed at Non-Active

get_value(item= Cc1cnc2cc(C3CCN(c4c(C)cccc4F)CC3)c(=O)n([C@@H]3CCC(F)(F)c4nccnc43)c2n1 [149A] , readout=[Agonist] B-arrestin2 recruitment: Average EC50 (nM)) returns Non-Active

Notebook: `Cc1cccc(F)c1N1CCC(c2cc3nccnc3n(Cc3ccc(C(F)(F)F)nc3)c2=O)CC1` , [Agonist] B-arrestin2 recruitment: Average EC50 (nM) read as Non-Active

Lookup result for `Cc1cnc2cc([C@H]3CC[C@H](c4c(C)cccc4F)CC3)c(=O)n(Cc3ncccc3OC3CC3)c2n1` ; measured [Agonist] B-arrestin2 recruitment: Average EC50 (nM): Non-Active

So for `Cc1cccc(F)c1N1CCC(c2cc3cncnc3n(Cc3nccnc3C(F)(F)F)c2=O)CC1` , the logged [Agonist] B-arrestin2 recruitment: Average EC50 (nM) turned out to be Non-Active

Quick note, [Agonist] B-arrestin2 recruitment: Average EC50 (nM) for Cc1cnc2cc([C@H]3CC[C@@H](c4c(C)cccc4F)CC3)c(=O)n(Cc3nccnc3C(F)F)c2n1 [148A] landed at Non-Active

Just so you know, measured [Agonist] B-arrestin2 recruitment: Average EC50 (nM) for `Cc1cnc2c(=O)n(C3CCN(c4c(C)cccc4F)CC3)c(=O)n(Cc3ncccc3C(F)(F)F)c2n1` came out at Non-Active

For reference, reported [Agonist] B-arrestin2 recruitment: Average EC50 (nM) for Cc1cnc2cc([C@@H]3CC[C@@H](c4c(C)cccc4F)C3)c(=O)n(Cc3nccnc3C(F)(F)F)c2n1 [197D] stands at Non-Active

The recorded [Agonist] B-arrestin2 recruitment: Average EC50 (nM) for entry `Cc1ccc2cc([C@H]3CC[C@H](c4c(C)cccc4F)CC3)c(=O)n(Cc3ncccc3CC(F)F)c2n1` equals Non-Active

[Agonist] B-arrestin2 recruitment: Average EC50 (nM) recorded for this compound, `COc1cnc2cc(C3CCN(c4c(C)cccc4F)CC3)c(=O)n(Cc3ncccc3C(F)(F)F)c2n1` , is Non-Active

The reported value for `COc1nccc(C)c1[C@H]1CC[C@H](c2cc3ccc(C)nc3n(Cc3ncccc3OC(F)(F)F)c2=O)CC1` in terms of [Agonist] B-arrestin2 recruitment: Average EC50 (nM) is Non-Active
